Biological target: T1, TNFR1 (Homo sapiens, UniProt P19438)
T1 chain: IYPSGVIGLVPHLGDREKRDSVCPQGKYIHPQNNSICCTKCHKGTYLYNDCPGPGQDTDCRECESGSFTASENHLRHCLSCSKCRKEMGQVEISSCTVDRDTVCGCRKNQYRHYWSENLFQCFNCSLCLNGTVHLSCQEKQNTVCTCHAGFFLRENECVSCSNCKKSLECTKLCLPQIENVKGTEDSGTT
Test: yeast display SC50
experimental-readout: apparent Kd (screen) (nM)

INSERT INTO assay_data (binder, experimental_readout, reported_result) VALUES
  ('L28D (designed binder) SMEEEVEKAAKEYEKKKKEAIEKHLEKDKAKDKEAAERFLKELEEAAKEYAKDEAKTMSEEEAKRRAKKYKEKVLLSELSEEEQKEIKEAEEKLVRTILKYVEEAAK', 'apparent Kd (screen)', 0.956),
  ('E81T (designed binder) SMEEEVEKAAKEYEKKKKEAIEKHLEKLKAKDKEAAERFLKELEEAAKEYAKDEAKTMSEEEAKRRAKKYKEKVLLSELSTEEQKEIKEAEEKLVRTILKYVEEAAK', 'apparent Kd (screen)', 0.718),
  ('R66P (designed binder) SMEEEVEKAAKEYEKKKKEAIEKHLEKLKAKDKEAAERFLKELEEAAKEYAKDEAKTMSEEEAKRPAKKYKEKVLLSELSEEEQKEIKEAEEKLVRTILKYVEEAAK', 'apparent Kd (screen)', 0.593),
  ('K71D (designed binder) SMEEEVEKAAKEYEKKKKEAIEKHLEKLKAKDKEAAERFLKELEEAAKEYAKDEAKTMSEEEAKRRAKKYDEKVLLSELSEEEQKEIKEAEEKLVRTILKYVEEAAK', 'apparent Kd (screen)', 16.7);
